TEST PROTOCOL: Anticancer human tumor 997537-175-T-J1-PDC patient-derived colon adenocarcinoma cell line growth inhibition [POLQ]
RECORDED CONDITIONS: 997537-175-T-J1-PDC complex spheroid viability, combination with POLQ inhibitors; second compound 10 µM; first compound 0.316 µM; hits give low values
Each record here notes measured viability, T/C.
// units = %; emit number, no label

Lab note: CC1COCCN1c1cc(C2(O)CC3CCC(C2)O3)c2cnn(-c3ccn[nH]3)c2n1 (stereo not given) + COC1C(OC(N)=O)C(O)C(Oc2ccc3c(O)c(NC(=O)c4ccc(O)c(CC=C(C)C)c4)c(=O)oc3c2C)OC1(C)C gave viability, T/C of 41.1

Value of viability, T/C reported for the compound C#Cc1c(F)ccc2cc(O)cc(-c3ncc4c(N5CC6CCC(C5)N6)nc(OCC56CCCN5CC(F)C6)nc4c3F)c12 (stereo not given) + Nc1ccc(C#CCN(C(=O)Cc2ncc(C(F)(F)F)cc2C(F)(F)F)c2ccc(F)cc2)nn1 is 100

---

Here, each record is paired with measured viability, T/C data.
TEST PROTOCOL: Anticancer human tumor 997537-175-T-J1-PDC cell line growth inhibition [POLQ];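 also: luminescence signal used as a surrogate for viable cells; spheroids exposed to drugs for seven days before readout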
RECORDED CONDITIONS: 997537-175-T-J1-PDC complex spheroid viability, combination with POLQ inhibitors; second compound 3.16 µM; first compound 3.16 µM; hits give low values
Respond with the bare value in %.

Consider the following illustrative entries.
[
  {
    "COMPOUND": "CCc1cc2c(N3CCc4c(cc(Cn5ccnc5)cc4-c4cn(C)nc4C(F)(F)F)C3=O)ccnc2c(OC)n1 + Nc1ccc(C#CCN(C(=O)Cc2ncc(C(F)(F)F)cc2C(F)(F)F)c2ccc(F)cc2)nn1",
    "MEAS VALUE": 71.6
  },
  {
    "COMPOUND": "CC(C)n1c(=O)n(C)c2cnc3cc(F)c(-c4ccc(OCCCN5CCCCC5)nc4)cc3c21 + Cc1cccc(N(C)C(=O)C2C(O)CCN2c2nc(C)cc(C(F)(F)F)c2C#N)c1",
    "MEAS VALUE": 98.8
  },
  {
    "COMPOUND": "COc1cccc2c1C(=O)c1c(O)c3c(c(O)c1C2=O)CC(O)(C(=O)CO)CC3OC1CC(N)C(O)C(C)O1 (stereo not given) + Cc1cccc(N(C)C(=O)C2C(O)CCN2c2nc(C)cc(C(F)(F)F)c2C#N)c1",
    "MEAS VALUE": 18.8
  },
  {
    "COMPOUND": "O=C(c1cc(Cc2n[nH]c(=O)c3ccccc23)ccc1F)N1CCN(C(=O)C2CC2)CC1 + Cc1cccc(N(C)C(=O)C2C(O)CCN2c2nc(C)cc(C(F)(F)F)c2C#N)c1",
    "MEAS VALUE": 97.5
  }
]

Data point: COc1ccc([C@@H](O)c2cc(-c3ncnc4cc(N5CCOCC5)ccc34)c(F)cc2Cl)nn1 + COC1C(OC(N)=O)C(O)C(Oc2ccc3c(O)c(NC(=O)c4ccc(O)c(CC=C(C)C)c4)c(=O)oc3c2C)OC1(C)C ; viability, T/C = 93.3

Briefly, viability, T/C measured for COc1ccc([C@@H](O)c2cc(-c3ncnc4cc(N5CCOCC5)ccc34)c(F)cc2Cl)nn1 + Nc1ccc(C#CCN(C(=O)Cc2ncc(C(F)(F)F)cc2C(F)(F)F)c2ccc(F)cc2)nn1 : 87.6

According to the records, this compound O=C(c1cc(Cc2n[nH]c(=O)c3ccccc23)ccc1F)N1CCN(C(=O)C2CC2)CC1 + Nc1ccc(C#CCN(C(=O)Cc2ncc(C(F)(F)F)cc2C(F)(F)F)c2ccc(F)cc2)nn1 displays viability, T/C of 98.5

Just so you know, measured viability, T/C for CC1COCCN1c1cc(-c2ccnn2C)c2ccnc(-c3ccn[nH]3)c2n1 (stereo not given) + COC1C(OC(N)=O)C(O)C(Oc2ccc3c(O)c(NC(=O)c4ccc(O)c(CC=C(C)C)c4)c(=O)oc3c2C)OC1(C)C came out at 27.4

Memo: COc1cc(C2c3cc4c(cc3C(OC3OC5COC(C)OC5C(O)C3O)C3COC(=O)C23)OCO4)cc(OC)c1O (stereo not given) + COC1C(OC(N)=O)C(O)C(Oc2ccc3c(O)c(NC(=O)c4ccc(O)c(CC=C(C)C)c4)c(=O)oc3c2C)OC1(C)C , reported viability, T/C: 63.5

So, COc1cccc2c1C(=O)c1c(O)c3c(c(O)c1C2=O)CC(O)(C(=O)CO)CC3OC1CC(N)C(O)C(C)O1 (stereo not given) + Nc1ccc(C#CCN(C(=O)Cc2ncc(C(F)(F)F)cc2C(F)(F)F)c2ccc(F)cc2)nn1 ? Its viability, T/C was 46.6

# viability, T/C (compound: CCc1cc2c(N3CCc4c(cc(Cn5ccnc5)cc4-c4cn(C)nc4C(F)(F)F)C3=O)ccnc2c(OC)n1 + COC1C(OC(N)=O)C(O)C(Oc2ccc3c(O)c(NC(=O)c4ccc(O)c(CC=C(C)C)c4)c(=O)oc3c2C)OC1(C)C ) is 70

// provenance: PubChem BioAssay AID1963825
